- target under test: Serine/threonine-protein kinase Chk1 (Homo sapiens) (UniProt O14757)
- Sequence (whole entry): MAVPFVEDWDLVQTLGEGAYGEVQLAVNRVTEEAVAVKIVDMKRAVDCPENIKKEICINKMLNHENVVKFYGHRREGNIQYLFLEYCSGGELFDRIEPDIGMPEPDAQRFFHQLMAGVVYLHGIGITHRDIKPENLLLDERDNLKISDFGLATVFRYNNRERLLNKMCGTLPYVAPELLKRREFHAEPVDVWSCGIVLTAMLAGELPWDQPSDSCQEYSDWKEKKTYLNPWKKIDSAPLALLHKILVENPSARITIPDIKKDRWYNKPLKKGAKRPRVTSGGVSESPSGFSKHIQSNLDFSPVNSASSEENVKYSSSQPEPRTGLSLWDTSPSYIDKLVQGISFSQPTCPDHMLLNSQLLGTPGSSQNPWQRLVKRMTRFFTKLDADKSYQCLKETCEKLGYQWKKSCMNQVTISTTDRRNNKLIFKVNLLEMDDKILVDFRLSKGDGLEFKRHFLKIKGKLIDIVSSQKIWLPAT
- protocol conditions: at 10 µM
measured endpoint: residual activity (%)
// units = %; emit number, no label

[ask] GET /values?readout=residual activity&item= O=C1NC(=O)c2c1c1c3ccccc3[nH]c1c1[nH]c3cc(Br)ccc3c21
[reply] 47

[ask] Queued: CO[C@@H]1[C@H](N(C)C(=O)c2ccccc2)C[C@H]2O[C@]1(C)n1c3ccccc3c3c4c(c5c6ccccc6n2c5c31)C(=O)NC4
[reply] 65

[ask] Queued: c1ccc(-c2n[nH]c3c2oc2ccccc23)cc1
[reply] 89

[ask] Queued: CCN(CC)CCCCN1c2ccccc2Oc2ccc(Cl)cc21
[reply] 103

[ask] Queued: CC(C)n1cnc2c(NCc3ccccc3)nc(NCCCO)nc21
[reply] 87

[ask] Queued: COc1cc2ncc(-c3ccccc3)nc2cc1OC
[reply] 78

[ask] Queued: CN(C)c1ccc(/C=C2\C(=O)Nc3ccccc32)cc1
[reply] 72

[ask] Queued: Cc1nc2cc3nc(-c4cccs4)cnc3cc2n1C
[reply] 108

[ask] Queued: O=c1c2ccccc2[nH]c(=S)n1CCN1CCC(=C(c2ccc(F)cc2)c2ccc(F)cc2)CC1
[reply] 104

[ask] Queued: CCC(=O)Nc1ccc2ncnc(Nc3cccc(Br)c3)c2c1
[reply] 87

[ask] Queued: Cn1nc2c3c(cccc31)C(=O)c1ccccc1-2
[reply] 75

====

For each of the molecules below, state its residual activity.
- target under test: Epidermal growth factor receptor (Homo sapiens) (UniProt P00533)
- Sequence (P00533 whole entry): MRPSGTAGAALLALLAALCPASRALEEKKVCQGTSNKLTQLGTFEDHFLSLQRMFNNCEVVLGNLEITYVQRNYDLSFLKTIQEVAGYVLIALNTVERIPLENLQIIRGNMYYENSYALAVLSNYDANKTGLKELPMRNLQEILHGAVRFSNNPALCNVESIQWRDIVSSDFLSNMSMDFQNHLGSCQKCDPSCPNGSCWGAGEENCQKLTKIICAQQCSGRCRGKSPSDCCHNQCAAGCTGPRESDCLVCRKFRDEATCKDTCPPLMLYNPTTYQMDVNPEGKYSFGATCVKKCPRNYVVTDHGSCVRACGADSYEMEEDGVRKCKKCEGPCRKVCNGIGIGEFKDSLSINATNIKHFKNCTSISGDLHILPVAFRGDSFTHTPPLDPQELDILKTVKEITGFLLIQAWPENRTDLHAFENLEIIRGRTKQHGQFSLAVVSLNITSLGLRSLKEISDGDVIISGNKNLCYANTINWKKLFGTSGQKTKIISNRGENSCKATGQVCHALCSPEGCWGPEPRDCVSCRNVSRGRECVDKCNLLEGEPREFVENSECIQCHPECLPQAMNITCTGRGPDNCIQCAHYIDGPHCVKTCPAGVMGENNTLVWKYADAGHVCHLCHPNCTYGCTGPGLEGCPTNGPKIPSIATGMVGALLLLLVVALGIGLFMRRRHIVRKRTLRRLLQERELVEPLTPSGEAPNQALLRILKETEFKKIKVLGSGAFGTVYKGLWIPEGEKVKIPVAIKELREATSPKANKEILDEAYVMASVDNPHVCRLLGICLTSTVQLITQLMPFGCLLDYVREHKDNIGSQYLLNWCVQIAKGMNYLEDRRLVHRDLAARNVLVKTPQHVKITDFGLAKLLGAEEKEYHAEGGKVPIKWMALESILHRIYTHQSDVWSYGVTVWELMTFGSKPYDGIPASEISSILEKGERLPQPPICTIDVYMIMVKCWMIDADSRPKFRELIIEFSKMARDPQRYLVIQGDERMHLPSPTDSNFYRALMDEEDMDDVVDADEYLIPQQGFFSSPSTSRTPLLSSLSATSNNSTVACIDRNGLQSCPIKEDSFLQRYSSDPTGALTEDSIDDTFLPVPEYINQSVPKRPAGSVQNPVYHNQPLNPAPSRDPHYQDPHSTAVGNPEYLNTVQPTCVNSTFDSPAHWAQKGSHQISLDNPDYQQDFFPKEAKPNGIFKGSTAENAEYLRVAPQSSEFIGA
- protocol conditions: at 10 µM
// units = %; emit number, no label

[ask] GET /values?readout=residual activity&item= O=C1Nc2cc(Br)ccc2/C1=C1/Nc2ccccc2/C1=N\O
[reply] 33

[ask] Queued: CC(C)n1cnc2c(NCc3ccccc3)nc(NCCCO)nc21
[reply] -2

[ask] Queued: O=C1NC(=O)/C(=C/c2ccc3c(c2)OC(F)(F)O3)S1
[reply] 119

[ask] Queued: CCOc1cc2ncnc(Nc3cccc(Br)c3)c2cc1OCC
[reply] -4

[ask] Queued: COc1cc2ncnc(Nc3ccc(Oc4ccccc4)cc3)c2cc1OC
[reply] -2

[ask] Queued: O=C1NC(=O)/C(=C\c2ccc3nccnc3c2)S1
[reply] 113

[ask] Queued: O=[N+]([O-])c1ccc(-c2nc(-c3ccc(F)cc3)c(-c3ccncc3)[nH]2)cc1
[reply] 95

[ask] Queued: CCN(CC)CCCCN1c2ccccc2Oc2ccc(Cl)cc21
[reply] 127

====

For each of the molecules below, state its residual activity.
- target under test: Tyrosine-protein kinase Mer (Homo sapiens) (UniProt Q12866)
- Sequence (Q12866 whole entry): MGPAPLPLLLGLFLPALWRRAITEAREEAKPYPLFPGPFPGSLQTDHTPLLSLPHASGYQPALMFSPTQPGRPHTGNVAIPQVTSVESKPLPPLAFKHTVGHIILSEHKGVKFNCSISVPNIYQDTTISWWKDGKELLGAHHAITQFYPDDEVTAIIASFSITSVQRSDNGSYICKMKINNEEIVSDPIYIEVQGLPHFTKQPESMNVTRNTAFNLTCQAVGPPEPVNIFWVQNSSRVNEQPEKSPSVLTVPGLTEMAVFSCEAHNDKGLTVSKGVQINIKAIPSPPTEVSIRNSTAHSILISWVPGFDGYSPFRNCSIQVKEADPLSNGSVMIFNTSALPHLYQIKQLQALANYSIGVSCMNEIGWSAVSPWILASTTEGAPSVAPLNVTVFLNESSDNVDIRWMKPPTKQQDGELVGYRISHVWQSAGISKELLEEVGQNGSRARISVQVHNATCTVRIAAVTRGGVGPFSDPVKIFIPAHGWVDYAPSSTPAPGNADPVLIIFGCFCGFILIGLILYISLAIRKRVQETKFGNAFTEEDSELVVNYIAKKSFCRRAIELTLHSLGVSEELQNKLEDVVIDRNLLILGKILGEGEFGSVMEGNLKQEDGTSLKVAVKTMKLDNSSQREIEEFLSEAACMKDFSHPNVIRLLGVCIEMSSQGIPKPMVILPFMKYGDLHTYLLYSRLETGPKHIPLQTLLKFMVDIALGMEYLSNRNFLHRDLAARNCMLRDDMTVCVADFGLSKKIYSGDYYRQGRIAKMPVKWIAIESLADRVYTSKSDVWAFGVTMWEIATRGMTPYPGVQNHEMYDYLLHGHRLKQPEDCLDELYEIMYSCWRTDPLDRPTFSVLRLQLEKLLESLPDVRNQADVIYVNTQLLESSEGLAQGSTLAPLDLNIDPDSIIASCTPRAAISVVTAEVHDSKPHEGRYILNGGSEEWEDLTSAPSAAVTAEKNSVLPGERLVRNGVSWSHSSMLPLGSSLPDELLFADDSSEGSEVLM
- protocol conditions: at 10 µM
// units = %; emit number, no label

[ask] GET /values?readout=residual activity&item= CC(C)n1cnc2c(NCc3ccccc3)nc(NCCCO)nc21
[reply] 82

[ask] Queued: O=C1Nc2ccccc2/C1=C1/Nc2ccccc2/C1=N\OCCC(O)CO (stereo unspecified)
[reply] -1

[ask] Queued: Cc1cc(Nc2nc(-c3ccccc3)nc3ccccc23)n[nH]1
[reply] 1

[ask] Queued: O=Nc1c(-c2c(O)[nH]c3ccccc23)[nH]c2ccccc12
[reply] -3

[ask] Queued: COc1cccc(-c2cc(=O)c3ccccc3o2)c1N
[reply] 101

[ask] Queued: c1ccc(-c2n[nH]c3c2oc2ccccc23)cc1
[reply] 70

[ask] Queued: CNc1cc2c(Nc3cccc(Br)c3)ncnc2cn1
[reply] 84

[ask] Queued: Nc1ccc2ncnc(NCCc3ccc(Oc4ccccc4)cc3)c2c1
[reply] 62

[ask] Queued: COc1ccc(S(=O)(=O)N(CCO)c2ccccc2CN(C)C/C=C/c2ccc(Cl)cc2)cc1
[reply] 83

[ask] Queued: Cn1nc2c3c(cccc31)C(=O)c1ccccc1-2
[reply] 21

[ask] Queued: CC(=O)O/N=C1\C(=C2\C(=O)Nc3cc(Br)ccc32)Nc2ccccc21
[reply] 6

====

- target under test: Platelet-derived growth factor receptor alpha (Homo sapiens)
- protocol conditions: at 10 µM
For each of the molecules below, state its residual activity.
// units = %; emit number, no label

[ask] GET /values?readout=residual activity&item= Cn1cnc2cc3c(Nc4cccc(Br)c4)ncnc3cc21
[reply] 79

[ask] Queued: O=C(O)c1ccc2c3c1cccc3c(=O)n1c3ccccc3nc21
[reply] 114

[ask] Queued: Nc1cccc(-c2cc3c(Oc4cccc(O)c4)ncnc3[nH]2)c1
[reply] 10

[ask] Queued: Cc1nc2cc3nc(-c4cccs4)cnc3cc2n1C
[reply] 15

[ask] Queued: COc1ccc(S(=O)(=O)N(CCO)c2ccccc2CN(C)C/C=C/c2ccc(Cl)cc2)cc1
[reply] 95

[ask] Queued: O=C1Nc2ccccc2/C1=C1/Nc2ccccc2/C1=N\OCCC(O)CO (stereo unspecified)
[reply] 28

[ask] Queued: O=C1NC(=O)c2cc(Nc3ccc(F)cc3)c(Nc3ccc(F)cc3)cc21
[reply] 107

[ask] Queued: O=C1NC(=O)c2c1c1c3ccccc3[nH]c1c1[nH]c3cc(Br)ccc3c21
[reply] 95

[ask] Queued: O=C1c2ccccc2-[n+]2ccc3c([nH]c4ccccc43)c21
[reply] 103

[ask] Queued: CO[C@H]1[C@@H](OC)C[C@H](C)[C@@H](OC)C2=CC(=O)C=C(NC(=O)/C(C)=C/C=C/[C@H](OC)[C@@H](OC(N)=O)/C(C)=C/[C@@H]1C)C2=O
[reply] 107

[ask] Queued: Cc1nc(-c2ccccc2)c(-c2ccncc2)o1
[reply] 83

[ask] Queued: O=C1NC(=O)/C(=C/c2ccc3c(c2)OC(F)(F)O3)S1
[reply] 113

[ask] Queued: CC[n+]1c(/C=C/N(C)c2ccccc2)n(-c2ccccc2)c2ccc(-c3nc4ccccc4s3)cc21
[reply] 94

[ask] Queued: Oc1c2ccccc2c2c3c(cccc13)N=N2
[reply] 86

[ask] Queued: COc1cc2ncc(-c3ccccc3)nc2cc1OC
[reply] 27

[ask] Queued: c1ccc(-c2n[nH]c3c2oc2ccccc23)cc1
[reply] 5

====

- target under test: Cyclin-dependent kinase 2/cyclin E (Homo sapiens) (UniProt P24864+P24941+O96020)
- protocol conditions: at 10 µM
Record fulfilled whenever residual activity is at 50% or higher; record not fulfilled when lower.

[ask] Would you say N#CCCc1ccc2c(c1)-c1[nH]c3ccc([N+](=O)[O-])cc3c1CC(=O)N2 shows residual activity at minimum 50%?
[reply] not fulfilled

[ask] Queued: Cn1cc(/C=C2\C(=O)Nc3ccc(S(N)(=O)=O)cc32)c2ccccc21
[reply] fulfilled

[ask] Queued: COc1ccc(OC)c2c(=S)c3ccccc3[nH]c12
[reply] fulfilled

[ask] Queued: O=C1Nc2cc(Br)ccc2/C1=C1/Nc2ccccc2/C1=N\O
[reply] not fulfilled

[ask] Queued: NC(=O)c1ccc2[nH]c(-c3ccc(Oc4ccc(Cl)cc4)cc3)nc2c1
[reply] fulfilled

[ask] Queued: Nc1cccc(-c2cc3c(Oc4cccc(O)c4)ncnc3[nH]2)c1
[reply] not fulfilled

[ask] Queued: Oc1ccc(-c2nc(-c3ccc(F)cc3)c(-c3ccncc3)[nH]2)cc1
[reply] fulfilled

[ask] Queued: COc1ccc(C(=O)Nc2sc3c(c2C(N)=O)CCCC3)cc1OC
[reply] fulfilled

[ask] Queued: COc1ccc(CNc2nc(N(CCO)CCO)nc3c2ncn3C(C)C)cc1
[reply] not fulfilled

[ask] Queued: Cc1ccc(NC2=CC(=O)c3sc(C)nc3C2=O)cc1
[reply] fulfilled

[ask] Queued: CO[C@H]1C[C@@H]2CC[C@@H](C)[C@@](O)(O2)C(=O)C(=O)N2CCCC[C@H]2C(=O)O[C@H]([C@H](C)C[C@@H]2CC[C@@H](O)[C@H](OC)C2)CC(=O)[C@H](C)/C=C(\C)[C@@H](O)[C@@H](OC)C(=O)[C@H](C)C[C@H](C)/C=C/C=C/C=C/1C
[reply] fulfilled

[ask] Queued: Oc1ccc(Nc2nc(-c3ccc(Cl)cc3)cs2)cc1
[reply] fulfilled

[ask] Queued: O=C1NC(=O)c2cc(Nc3ccc(F)cc3)c(Nc3ccc(F)cc3)cc21
[reply] fulfilled

[ask] Queued: Cc1nc(-c2ccccc2)c(-c2ccncc2)o1
[reply] fulfilled

[ask] Queued: CCOc1cc2ncnc(Nc3cccc(Br)c3)c2cc1OCC
[reply] fulfilled

[ask] Queued: COc1ccc(S(=O)(=O)N(CCO)c2ccccc2CN(C)C/C=C/c2ccc(Cl)cc2)cc1
[reply] fulfilled

[ask] Queued: Cc1cccc(-c2[nH]c(C(C)(C)C)nc2-c2ccc3c(c2)OCO3)n1
[reply] fulfilled

[ask] Queued: O=c1cc(-c2cccc3c2Sc2ccccc2S3)oc(N2CCOCC2)c1
[reply] fulfilled

[ask] Queued: Nc1nc(Nc2ccc(S(N)(=O)=O)cc2)nn1C(=S)Nc1c(F)cccc1F
[reply] not fulfilled

[ask] Queued: CC(C)n1cnc2c(NCc3ccccc3)nc(NCCCO)nc21
[reply] not fulfilled

[ask] Queued: CO[C@H]1[C@@H](OC)C[C@H](C)[C@@H](OC)C2=CC(=O)C=C(NC(=O)/C(C)=C/C=C/[C@H](OC)[C@@H](OC(N)=O)/C(C)=C/[C@@H]1C)C2=O
[reply] fulfilled

[ask] Queued: CC#CC(=O)Nc1cc2c(Nc3ccc(F)c(Cl)c3)ncnc2cn1
[reply] fulfilled

[ask] Queued: O=C1NC(=O)c2c1c1c3ccccc3[nH]c1c1[nH]c3cc(Br)ccc3c21
[reply] fulfilled

[ask] Queued: O=C(Nc1cccc(Nc2cc(Nc3cccc(C(F)(F)F)c3)ncn2)c1)C1CC1
[reply] fulfilled

[ask] Queued: CCN(CC)C(=O)c1ccc(Nc2nc(OCC3CCCCC3)c3nc[nH]c3n2)cc1
[reply] not fulfilled

[ask] Queued: Cc1cc(Nc2nc(-c3ccccc3)nc3ccccc23)n[nH]1
[reply] not fulfilled

[ask] Queued: Nc1n[nH]c2nnc(-c3c(-c4ccccc4)nn4ccccc34)cc12
[reply] fulfilled

[ask] Queued: O=[N+]([O-])c1ccc(-c2nc(-c3ccc(F)cc3)c(-c3ccncc3)[nH]2)cc1
[reply] fulfilled

[ask] Queued: CN(C)CCCn1cc(C2=C(c3c[nH]c4ccccc34)C(=O)NC2=O)c2ccccc21
[reply] not fulfilled

[ask] Queued: CC(=O)c1ccc(N2CCOCC2)cc1O
[reply] fulfilled
